Values were extracted from ChEMBL document CHEMBL3751745.

# System: HeLa
# test_protocol: Cytotoxicity against human HeLa cells assessed as cell viability after 48 hrs by SRB assay
# Type: functional, cell-based
Quick reference: IC50 of the listed items.
measure: IC50 (µM)

molecular_string=CCc1nn2c(-c3ccc4c(c3)OCO4)c(-c3cc(OC)c(OC)c(OC)c3)nc2s1 endpoint_result=8.7
molecular_string=CCc1nn2c(-c3ccc(OC)c(OC)c3)c(-c3cc(OC)c(OC)c(OC)c3)nc2s1 endpoint_result=14.6
molecular_string=CCc1nn2c(-c3ccc(F)c(Cl)c3)c(-c3cc(OC)c(OC)c(OC)c3)nc2s1 endpoint_result=13.9
molecular_string=CCc1nn2c(-c3ccc(F)cc3)c(-c3cc(OC)c(OC)c(OC)c3)nc2s1 endpoint_result=11.3
molecular_string=COc1ccc(-c2c(-c3cc(OC)c(OC)c(OC)c3)nc3sc(C4CC4)nn23)cc1OC endpoint_result=15.6
molecular_string=COc1ccc(-c2c(-c3cc(OC)c(OC)c(OC)c3)nc3sc(C4CC4)nn23)cc1 endpoint_result=14.6
molecular_string=COc1cc(-c2nc3sc(C4CC4)nn3c2-c2cc(OC)c(OC)c(OC)c2)cc(OC)c1OC endpoint_result=13.7
molecular_string=COc1cc(-c2nc3sc(C4CC4)nn3c2-c2ccccc2)cc(OC)c1OC endpoint_result=35.4
molecular_string=COc1cc(-c2nc3sc(C4CC4)nn3c2-c2ccc3c(c2)OCO3)cc(OC)c1OC endpoint_result=16.8
molecular_string=CCc1nn2c(-c3ccc(C)cc3)c(-c3cc(OC)c(OC)c(OC)c3)nc2s1 endpoint_result=14.8
molecular_string=CCc1nn2c(-c3ccc(OC)cc3)c(-c3cc(OC)c(OC)c(OC)c3)nc2s1 endpoint_result=21.6
molecular_string=COc1cc(F)ccc1-c1c(-c2cc(OC)c(OC)c(OC)c2)nc2sc(C3CC3)nn12 endpoint_result=25.9
molecular_string=COc1cc(-c2nc3sc(C4CC4)nn3c2-c2ccc(C(F)(F)F)cc2)cc(OC)c1OC endpoint_result=43.5
molecular_string=CCc1nn2c(-c3ccc(C(F)(F)F)cc3)c(-c3cc(OC)c(OC)c(OC)c3)nc2s1 endpoint_result=10.5
molecular_string=CCc1nn2c(-c3ccc(OC(F)(F)F)cc3)c(-c3cc(OC)c(OC)c(OC)c3)nc2s1 endpoint_result=13.4
molecular_string=COc1cc(-c2nc3sc(C4CC4)nn3c2-c2ccc(F)cc2)cc(OC)c1OC endpoint_result=15.6
molecular_string=COc1cc(-c2nc3sc(C4CC4)nn3c2-c2ccc(C)cc2)cc(OC)c1OC endpoint_result=20.5
molecular_string=CCc1nn2c(-c3ccc4ccccc4c3)c(-c3cc(OC)c(OC)c(OC)c3)nc2s1 endpoint_result=1.6
molecular_string=COc1cc(-c2nc3sc(C4CC4)nn3c2-c2ccc(Cl)cc2)cc(OC)c1OC endpoint_result=19.2
